Tested on: HCT-15
Measured Attribute: GI50

| Compound | GI50 |
| --- | --- |
| Cc1cn(C2CCN(CC3COC(C)(C)O3)O2)c(=O)[nH]c1=O (stereo not drawn) | > 100 µM |
| Nc1ncnc2c1ccn2CC=C(CO)CO | > 100 µM |

What does the data say about its GI50? Entry: O=C(N/C(=C\c1ccc(/C=C(\NC(=O)c2ccccc2)c2nc3c(O)nc(S)nc3[nH]2)cc1)c1nc2c(O)nc(S)nc2[nH]1)c1ccccc1 > 100 µM

---

Tested on: SNB-75
Test Protocol: NCI tumour cell line growth inhibition, 48 h
Calls of active or inactive are those of the source. No stated cut-off is given here; in the data, active = GI50 up to about 1.1 µM and inactive = higher.
Provide the reported GI50 of each item.

| Molecule | Measured Attribute | Endpoint Value |
| --- | --- | --- |
| O=[N+]([O-])c1ccccc1/C=N/C12CC3CC(CC(C3)C1)C2 | GI50 | 65 µM (inactive) |
| CCOC(=O)c1ccc(Nc2nc3cc(C(F)(F)F)ccc3nc2-c2ccccc2)cc1 | GI50 | 13.5 µM (inactive) |
| CCC(=O)C(CCN1CCC2(CCCc3ccccc32)CC1)(c1ccccc1)c1ccccc1 | GI50 | 2.95 µM (inactive) |
| CC(=O)Nc1ccc2nc(-c3cccc(Cl)c3)cc(O)c2c1 | GI50 | 4.4 µM (inactive) |
| Cc1ccc2c(c1)C(=O)C1(C2)Cc2c(C)cccc2C1=O (stereo not drawn) | GI50 | > 100 µM (inactive) |
| CC1=NNC(=O)C1C(CC(=O)c1c[nH]c2ccccc12)C(=O)O (stereo not drawn) | GI50 | > 100 µM (inactive) |
| O=C(CCNC12CC3CC(CC(C3)C1)C2)c1ccccc1 | GI50 | 33 µM (inactive) |
| CC(NC(=O)C(N)CC(=O)O)C(=O)OC12CC3CC(CC(C3)C1)C2 (stereo not drawn) | GI50 | > 100 µM (inactive) |
| C/C(C=O)=N\Nc1cc(C)c2ccccc2n1 | GI50 | 15.1 µM (inactive) |
| COC(=O)C(=O)C(C(=O)C=C(C)C)C(=O)C(=O)Nc1ccc(Cl)cc1C (stereo not drawn) | GI50 | > 100 µM (inactive) |

Please give GI50 for each item listed below.
1. O=C(CCl)N1CCN(c2ccccn2)CC1
2. O=C(CSc1nnc(-c2ccc(/N=C\c3ccc(Cl)cc3)cc2)o1)Nc1ccc(Cl)cc1Cl
3. C=Cc1nc2c(Cl)ncnc2n1Cc1ccccc1

1. > 10 µM (inactive)
2. 22.7 µM (inactive)
3. 13.6 µM (inactive)
